Overview of recorded Serum TNF-α level, Animal-3 for various compounds
Test system: TNF-α
Assay: Serum TNF-α level of IBD animal model (ELISA)
Type: in vivo, SD rats
Settings: 80 mg/kg, three days after making the TNBS model, Animal-3
VALUE_TYPE: Serum TNF-α level, Animal-3 (ng/mL)

[
  {
    "COMPOUND": "N#Cc1cc([S+]([O-])/C=C/CCN=C=S)cc(C(F)(F)F)c1 (stereo not drawn)",
    "REPORTED_MEASUREMENT": 1.1
  },
  {
    "COMPOUND": "Nc1ccc(O)c(C(=O)O)c1 [Compound 5-ASA, 5-aminosalicylic acid, reference compound]",
    "REPORTED_MEASUREMENT": 2.0
  },
  {
    "COMPOUND": "S=C=NCCc1ccccc1 [PEITC, phenylethylisothiocyanate, reference compound]",
    "REPORTED_MEASUREMENT": 2.0
  }
]
